- protocol.notes: Dye hue from spectrophotometric curves: λ-max, half band width, curve shape factor
- assay.setup: Table I; coupler solvent CS-1; developer D-1
Give measured HBW (half band width) for each item. Keep answers brief.
Report only the number, with the unit nanometers understood.

Problem: Which HBW (half band width) reading was recorded for the compound CCCCCCCCCCCCC(Oc1ccc(S(=O)(=O)c2ccc(O)cc2)cc1)C(=O)NC1=NN(c2c(Cl)cc(Cl)cc2Cl)C(=O)C1 (stereo not shown) [Coupler M-3] ?
Result: 96

Problem: May I ask what HBW (half band width) has been recorded for CCCCCCCCCCC(Oc1ccc(S(=O)(=O)c2ccc(O)cc2)cc1)C(=O)Nc1ccc(Cl)c(NC2=NN(c3c(Cl)cc(Cl)cc3Cl)C(=O)C2)c1 (stereo not shown) [Coupler M-28] ?
Result: 92

Problem: So what's the measured HBW (half band width) for this one? CCCCCCCCCCCCCCCc1cccc(OC(CC)C(=O)NC2=NN(c3c(C)cc(C)cc3Cl)C(=O)C2)c1 (stereo not shown) [CC-1, reference compound]
Result: 94

Problem: I am curious: what HBW (half band width) value has been reported for CCCCCCCCCCCCC(Oc1ccc(S(=O)(=O)c2ccc(O)cc2)cc1)C(=O)Nc1ccc(Cl)c(NC2=NN(c3c(Cl)cc(Cl)cc3Cl)C(=O)C2)c1 (stereo not shown) [Coupler M-27] ?
Result: 91

---

- protocol.notes: Dye hue from spectrophotometric curves: λ-max, half band width, curve shape factor
- assay.setup: Table I; coupler solvent CS-1; developer D-1
metric.name: λ-max (maximum absorption peak of dye)
Provide a numeric answer; units are not to be included.

Problem: Name the reported λ-max (maximum absorption peak of dye) value associated with the compound CCCCCCCCCCCCCCCc1cccc(OC(CC)C(=O)NC2=NN(c3c(C)cc(C)cc3Cl)C(=O)C2)c1 (stereo not shown) [CC-1, reference compound]
Result: 531

Problem: Form field: reported λ-max (maximum absorption peak of dye) of CCCCCCCCCCCCC(Oc1ccc(S(=O)(=O)c2ccc(O)cc2)cc1)C(=O)Nc1ccc(Cl)c(NC2=NN(c3c(Cl)cc(Cl)cc3Cl)C(=O)C2)c1 (stereo not shown)
Result: 545

Problem: Bench note: what λ-max (maximum absorption peak of dye) did CCCCCCCCCCCCC(Oc1ccc(S(=O)(=O)c2ccc(O)cc2)cc1)C(=O)NC1=NN(c2c(Cl)cc(Cl)cc2Cl)C(=O)C1 (stereo not shown) show?
Result: 546

Problem: Recorded λ-max (maximum absorption peak of dye) for CCCCCCCCCCC(Oc1ccc(S(=O)(=O)c2ccc(O)cc2)cc1)C(=O)Nc1ccc(Cl)c(NC2=NN(c3c(Cl)cc(Cl)cc3Cl)C(=O)C2)c1 (stereo not shown) , please?
Result: 549

---

- protocol.notes: Dye hue from spectrophotometric curves: λ-max, half band width, curve shape factor
- assay.setup: Table I; coupler solvent CS-3; developer D-2
Please provide measured CSF (curve shape factor, 100 X TBW/HBW) for the entries that follow.
// no unit, no text: just the number

Problem: Data request, read-out CSF (curve shape factor, 100 X TBW/HBW), for CCC(C)(C)c1ccc(OCCCC(=O)Nc2ccc(Cl)c(NC(=O)C(Oc3ccc(S(=O)(=O)c4ccc(OCc5ccccc5)cc4)cc3)C(=O)C(C)(C)C)c2)c(C(C)(C)CC)c1 (stereo not drawn) [CC-6, reference compound]
Result: 42.0

Problem: State the recorded CSF (curve shape factor, 100 X TBW/HBW) for this entry: CCCCC(Oc1ccc(S(=O)(=O)c2ccc(OCc3ccccc3)cc2)cc1)C(=O)Nc1ccc(Cl)c(NC(=O)C(Oc2ccc(S(=O)(=O)c3ccc(O)cc3)cc2)C(=O)C(C)(C)C)c1 (stereo not drawn) [CC-7, reference compound]
Result: 45.2

Problem: Looking for the measured CSF (curve shape factor, 100 X TBW/HBW) of CCc1c(Cl)cc(NC(=O)C(CC)Oc2ccc(C(C)(C)CC)cc2C(C)(C)CC)c(O)c1Cl (stereo not drawn) [CC-4, reference compound] , can you help?
Result: 45.2

Problem: For the molecule CC(C)(C)C(=O)C(Oc1ccc(S(=O)(=O)c2ccc(OCc3ccccc3)cc2)cc1)C(=O)Nc1cc(NS(=O)(=O)c2ccc(O)cc2)ccc1Cl (stereo not drawn) , what CSF (curve shape factor, 100 X TBW/HBW) is on record?
Result: 43.7

Problem: Item CCCCC(Oc1ccc(S(=O)(=O)c2ccc(OCc3ccccc3)cc2)cc1)C(=O)Nc1cccc(NC(=O)C(Oc2ccc(S(=O)(=O)c3ccc(O)cc3)cc2)C(=O)C(C)(C)C)c1 (stereo not drawn) [CC-8, reference compound] has what recorded CSF (curve shape factor, 100 X TBW/HBW)?
Result: 44.3

Problem: Fill in the blank: the reported CSF (curve shape factor, 100 X TBW/HBW) of CCCCC(Oc1ccc(S(=O)(=O)c2ccc(O)cc2)cc1)C(=O)Nc1ccc(Cl)c(NC(=O)C(Oc2ccc(S(=O)(=O)c3ccc(O)cc3)cc2)C(=O)C(C)(C)C)c1 (stereo not drawn) is ____.
Result: 44.4

Problem: Return reported CSF (curve shape factor, 100 X TBW/HBW); argument: CCCCCCCCCCCCCCCCS(=O)(=O)Nc1ccc(Cl)c(NC(=O)C(Oc2ccc(S(=O)(=O)c3ccc(OCc4ccccc4)cc3)cc2)C(=O)C(C)(C)C)c1 (stereo not drawn) [CC-5, reference compound]
Result: 43.5

Problem: Return reported CSF (curve shape factor, 100 X TBW/HBW); argument: CCCCC(Oc1ccc(S(=O)(=O)c2ccc(O)cc2)cc1)C(=O)Nc1cccc(NC(=O)C(Oc2ccc(S(=O)(=O)c3ccc(O)cc3)cc2)C(=O)C(C)(C)C)c1 (stereo not drawn)
Result: 44.4

Problem: Tell me the measured CSF (curve shape factor, 100 X TBW/HBW) of CCCCCCCCCCC(Oc1ccc(S(=O)(=O)c2ccc(O)cc2)cc1)C(=O)Nc1cc(Cl)c(CC)c(Cl)c1O (stereo not drawn) , please.
Result: 47.0
